# Tested on: PANC-02-03 (Pancreatic Carcinoma)
# experiment: combination Emax (second highest fraction inhibited in the dose matrix, 72 h); higher = more inhibition; extreme values may be limits of the assay
outcome.measure: combination Emax
Answers are plain numbers.

Use the examples below as a reference point.
INSERT INTO results (compound, observed_result) VALUES
  ('CCc1c2c(nc3ccc(O)cc13)-c1cc3c(c(=O)n1C2)COC(=O)[C@]3(O)CC [SN-38] + CN(C)CCCOc1ccc(-c2ccc3ncc4c(c3c2)n(C2CCOCC2)c(=O)n4C)cn1 [AZD0156] (first compound max 0.3 µM, 7x7, partner max 1 µM)', 0.693),
  ('CC(=O)c1c(C)c2cnc(Nc3ccc(N4CCNCC4)cn3)nc2n(C2CCCC2)c1=O [Palbociclib] + CC1(C)CCC(CN2CCN(c3ccc(C(=O)NS(=O)(=O)c4ccc(NCC5CCOCC5)c([N+](=O)[O-])c4)c(Oc4cnc5[nH]ccc5c4)c3)CC2)=C(c2ccc(Cl)cc2)C1 [Venetoclax] (first compound max 10 µM, 7x7, partner max 1 µM)', 0.148);

Moving on to another compound below.
IN: State, in one line, measured combination Emax of Cc1c2c(nn1C)CSCc1cc(n(C)n1)CSc1cc(c3ccccc3c1)OCCCc1c(C(=O)O)n(C)c3c-2c(Cl)ccc13 [AZD5991] + CC(=O)O[C@H]1C(=O)[C@@]2(C)[C@H]([C@H](OC(=O)c3ccccc3)[C@]3(O)C[C@H](OC(=O)[C@H](O)[C@@H](NC(=O)c4ccccc4)c4ccccc4)C(C)=C1C3(C)C)[C@]1(OC(C)=O)CO[C@@H]1C[C@@H]2O [Paclitaxel] (first compound max 1 µM, 7x7, partner max 3 µM)
OUT: 0.427

* * *

Please respond with reported combination Emax for every item in the list.
# Tested on: OVTOKO (Ovarian Carcinoma)
# experiment: combination Emax (second highest fraction inhibited in the dose matrix, 72 h); higher = more inhibition; extreme values may be limits of the assay

Use the examples below as a reference point.
INSERT INTO measurements (compound, observed_result) VALUES
  ('Cc1cc2ncnn2cc1Nc1ncc2c(n1)n(C1CCOCC1)c(=O)n2C [AZD7648] + O=C(c1cc(Cc2n[nH]c(=O)c3ccccc23)ccc1F)N1CCN(C(=O)C2CC2)CC1 [Olaparib] (first compound max 10 µM, 7x7, partner max 10 µM)', 0.186),
  ('CN(CCO)CC[C@H](CSc1ccccc1)Nc1ccc(S(=O)(=O)NC(=O)c2ccc(N3CCC([C@@H](O)c4ccccc4-c4ccc(Cl)cc4)CC3)cc2)cc1S(=O)(=O)C(F)(F)F [AZD4320] + CCN(CCO)CCCOc1ccc2c(Nc3cc(CC(=O)Nc4cccc(F)c4)[nH]n3)ncnc2c1 [AZD2811] (first compound max 1 µM, 7x7, partner max 1 µM)', 0.166),
  ('Cn1cnc2c(F)c(Nc3ccc(Br)cc3Cl)c(C(=O)NOCCO)cc21 [Selumetinib] + CC(C)n1c(=O)n(C)c2cnc3cc(F)c(-c4ccc(OCCCN5CCCCC5)nc4)cc3c21 [AZD1390] (first compound max 10 µM, 7x7, partner max 0.3 µM)', 0.185);

IN: State, in one line, measured combination Emax of Cc1c2c(nn1C)CSCc1cc(n(C)n1)CSc1cc(c3ccccc3c1)OCCCc1c(C(=O)O)n(C)c3c-2c(Cl)ccc13 [AZD5991] + Cc1cc2ncnn2cc1Nc1ncc2c(n1)n(C1CCOCC1)c(=O)n2C [AZD7648] (first compound max 1 µM, 7x7, partner max 10 µM)
OUT: 0.41
